B1: ZBTB22 (parent)
chain: RPFDCPVCNKKFKMKHHLTEHMKT

Variants of: B1
PROCEDURE_SUMMARY: protein stability index of a GFP-peptide fusion (GPS, HEK-293T) (PSI 1-6); higher = more stable;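 note: lentivirally expressed fusions sorted by FACS into six bins by GFP to DsRed ratio, PSI derived from sequencing read proportions per bin multiplied by bin number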
CONDITION_SUMMARY: c terminus: a fixed tail appended
Here the recorded protein stability index is given for each entry.
OBSERVABLE: protein stability index

mutation_code=K15C data_value=4.13
mutation_code=K11M data_value=1.84
mutation_code=H21L data_value=1.45
mutation_code=H17P data_value=2.19
mutation_code=K23S data_value=2.4
mutation_code=H16T data_value=2.39
mutation_code=K10V data_value=2.11
mutation_code=C8F data_value=2.26
mutation_code=T24R data_value=2.84
mutation_code=H17T data_value=2.15
mutation_code=K23A data_value=2.3
mutation_code=H21S data_value=2.52
mutation_code=H17F data_value=1.73
mutation_code=P2G data_value=2.46
mutation_code=P2H data_value=2.97
mutation_code=K10N data_value=2.45
mutation_code=H21G data_value=2.38
mutation_code=H21A data_value=2.74
mutation_code=H21P data_value=2.37
mutation_code=K11Y data_value=2.17
mutation_code=T24V data_value=2.34
mutation_code=H17E data_value=3.42
mutation_code=R1M data_value=2.71
mutation_code=M22S data_value=2.29
mutation_code=H16I data_value=2.08
mutation_code=P6Q data_value=2.32
mutation_code=T19S data_value=2.35
mutation_code=F12L data_value=2.38
mutation_code=H17V data_value=2.24
mutation_code=F3T data_value=3.09
mutation_code=M22C data_value=2.93
mutation_code=V7M data_value=2.25
mutation_code=F3W data_value=2.57
mutation_code=D4M data_value=3.5
mutation_code=N9P data_value=2.43
mutation_code=N9T data_value=2.27
mutation_code=M22N data_value=2.62
mutation_code=C8M data_value=2.93
mutation_code=F12W data_value=2.02
mutation_code=K10S data_value=2.63
mutation_code=P2I data_value=2.37
mutation_code=D4Q data_value=3.46
mutation_code=K11L data_value=2.25
mutation_code=C5A data_value=2.51
mutation_code=K15A data_value=2.03
mutation_code=T24G data_value=2.44
mutation_code=K10C data_value=2.49
mutation_code=L18H data_value=3.08
mutation_code=P6S data_value=2.42
mutation_code=D4F data_value=2.95
mutation_code=T24A data_value=2.87
mutation_code=N9E data_value=3.36
mutation_code=H21M data_value=1.54
mutation_code=M14D data_value=3.75
mutation_code=T24Y data_value=2.01
mutation_code=H21W data_value=2.13
mutation_code=H21R data_value=2.25
mutation_code=K10T data_value=2.96
mutation_code=T19E data_value=3.39
mutation_code=P2V data_value=2.12
mutation_code=K15H data_value=2.24
mutation_code=T19A data_value=2.89
mutation_code=E20N data_value=3
mutation_code=C5Y data_value=2.93
mutation_code=H21E data_value=2.88
mutation_code=M14R data_value=3.14
mutation_code=K15I data_value=1.76
mutation_code=H17G data_value=1.74
mutation_code=M14H data_value=3.48
mutation_code=H16V data_value=2.08
mutation_code=K13F data_value=2.33
mutation_code=L18I data_value=2.1
mutation_code=T19C data_value=4.25
mutation_code=L18T data_value=2.67
mutation_code=M14G data_value=2.69
mutation_code=K23F data_value=1.95
